Tested on: RS4; 11 with G101V mutation
Assay Procedure: In vitro anti-proliferation assay (ATPlite luminescence) in BCL-2-dependent ALL cell line RS4;11 with G101V mutation
Type: cell-based
Condition Details: Homo sapiens, RS4-11, 72 h; read-out: RS411-G101V IC50

{"Compound": "CC(C)Oc1ccccc1[C@@H]1CN(Cc2ccc(C(C)(C)C)nc2)CCN1C1CC2(CCN(c3ccc(C(=O)NS(=O)(=O)c4cc5c(c([N+](=O)[O-])c4)N[C@H](C4CCOCC4)CO5)c(N4c5cc6cc[nH]c6nc5O[C@H]5COCC[C@@H]54)c3)CC2)C1 [Example 256]", "Endpoint Unit": "nM", "IC50": 11.8}
{"Compound": "CC(C)Oc1ccccc1[C@@H]1CN(Cc2ccc(C3CC3)nc2)CCN1C1CC2(CCN(c3ccc(C(=O)NS(=O)(=O)c4cc5c(c([N+](=O)[O-])c4)N[C@H](C4CCOCC4)CO5)c(N4c5cc6cc[nH]c6nc5O[C@H]5COCC[C@@H]54)c3)CC2)C1 [Example 257]", "Endpoint Unit": "nM", "IC50": 3.9}

---

Test system: RS4; 11 with G101V mutation
Assay Procedure: In vitro anti-proliferation assay (ATPlite luminescence) in BCL-2-dependent ALL cell line RS4;11 with G101V mutation
Assay type: cell-based
Condition Details: cellular anti-proliferative IC50, about 72 hours, medium with 10% FBS, ATPlite; read-out: RS411-G101V IC50
pIC50: −log10 of the molar value.
Reported pIC50 is given for each of the following molecules.

{"Molecule": "Cc1ccccc1[C@@H]1CN(Cc2ccc(F)c(F)c2)CCN1C1CC2(CCN(c3ccc(C(=O)NS(=O)(=O)c4cc5c(c([N+](=O)[O-])c4)N[C@H](C4CCOCC4)CO5)c(N4c5cc6cc[nH]c6nc5O[C@H]5COCC[C@@H]54)c3)CC2)C1", "Assay Target": "RS4; 11 with G101V mutation", "pIC50": 7.19}
{"Molecule": "COc1c(N2CCOCC2)ncc2c1COC[C@H]2N1CCN(C2CC3(CCN(c4ccc(C(=O)NS(=O)(=O)c5cc6c(c([N+](=O)[O-])c5)N[C@H](C5CCOCC5)CO6)c(N5c6cc7cc[nH]c7nc6O[C@H]6COCC[C@@H]65)c4)CC3)C2)[C@H](c2ccccc2OC(C)C)C1", "Assay Target": "RS4; 11 with G101V mutation", "pIC50": 8.00}
{"Molecule": "Cc1ccccc1[C@@H]1CN([C@H]2CCOc3cc(F)c(F)cc32)CCN1C1CC2(CCN(c3ccc(C(=O)NS(=O)(=O)c4cc5c(c([N+](=O)[O-])c4)N[C@H](C4CCOCC4)CO5)c(N4c5cc6cc[nH]c6nc5O[C@H]5COCC[C@@H]54)c3)CC2)C1", "Assay Target": "RS4; 11 with G101V mutation", "pIC50": 6.69}
{"Molecule": "COc1cc(CN2CCN(C3CC4(CCN(c5ccc(C(=O)NS(=O)(=O)c6ccc(NCC7CCC(C)(O)CC7)c([N+](=O)[O-])c6)c(N6c7cc8cc[nH]c8nc7O[C@H]7COCC[C@@H]76)c5)CC4)C3)[C@@H](c3ccccc3OC(C)C)C2)cnc1N1CCOCC1 (stereo partly drawn) [Example 101]", "Assay Target": "RS4; 11 with G101V mutation", "pIC50": 7.89}
{"Molecule": "Cc1ccccc1[C@@H]1CN(Cc2ccc(F)c(F)c2)CCN1C1CC2(CCN(c3ccc(C(=O)NS(=O)(=O)c4ccc(NCC5CCOCC5)c([N+](=O)[O-])c4)c(N4c5cc6cc[nH]c6nc5O[C@H]5COCC[C@@H]54)c3)CC2)C1", "Assay Target": "RS4; 11 with G101V mutation", "pIC50": 7.31}
{"Molecule": "COc1cc(CN2CCN(C3CC4(CCN(c5ccc(C(=O)NS(=O)(=O)c6ccc(NC[C@H]7CC[C@](C)(O)CC7)c([N+](=O)[O-])c6)c(N6c7cc8cc[nH]c8nc7O[C@H]7COCC[C@@H]76)c5)CC4)C3)[C@@H](c3ccccc3OC(C)C)C2)ccc1C1CC1", "Assay Target": "RS4; 11 with G101V mutation", "pIC50": 7.50}
{"Molecule": "CC(C)Oc1ccccc1[C@@H]1CN(C2CCC3(CCOCC3)CC2)CCN1C1CC2(CCN(c3ccc(C(=O)NS(=O)(=O)c4cc5c(c([N+](=O)[O-])c4)N[C@H](C4CCOCC4)CO5)c(N4c5cc6cc[nH]c6nc5O[C@H]5COCC[C@@H]54)c3)CC2)C1 (stereo partly drawn)", "Assay Target": "RS4; 11 with G101V mutation", "pIC50": 7.79}
{"Molecule": "Cc1ccccc1[C@@H]1CN(C2CCC(C)(O)CC2)CCN1C1CC2(CCN(c3ccc(C(=O)NS(=O)(=O)c4cc5c(c([N+](=O)[O-])c4)N[C@H](C4CCOCC4)CO5)c(N4c5cc6cc[nH]c6nc5O[C@H]5COCC[C@@H]54)c3)CC2)C1 (stereo partly drawn) [Example 199]", "Assay Target": "RS4; 11 with G101V mutation", "pIC50": 7.30}
{"Molecule": "CC(C)Oc1ccccc1[C@H]1CN(C2CCC(C)(O)CC2)CCN1C1CC2(CCN(c3ccc(C(=O)NS(=O)(=O)c4ccc(NCC5CCC(C)(O)CC5)c([N+](=O)[O-])c4)c(N4c5cc6cc[nH]c6nc5O[C@H]5COCC[C@@H]54)c3)CC2)C1 (stereo partly drawn) [Example 108]", "Assay Target": "RS4; 11 with G101V mutation", "pIC50": 8.14}
{"Molecule": "CC(C)Oc1ccccc1[C@H]1CN(Cc2ccc(N3CCOCC3)nc2)CCN1C1CC2(CCN(c3ccc(C(=O)NS(=O)(=O)c4ccc(NCC5CCC(C)(O)CC5)c([N+](=O)[O-])c4)c(N4c5cc6cc[nH]c6nc5O[C@H]5COCC[C@@H]54)c3)CC2)C1 (stereo partly drawn)", "Assay Target": "RS4; 11 with G101V mutation", "pIC50": 7.79}
{"Molecule": "COc1ncc(CN2CCN(C3CC4(CCN(c5ccc(C(=O)NS(=O)(=O)c6ccc(NCC7CCC(C)(O)CC7)c([N+](=O)[O-])c6)c(N6c7cc8cc[nH]c8nc7O[C@H]7COCC[C@@H]76)c5)CC4)C3)[C@@H](c3ccccc3OC(C)C)C2)cc1C (stereo partly drawn)", "Assay Target": "RS4; 11 with G101V mutation", "pIC50": 7.67}
{"Molecule": "Cc1ccccc1[C@@H]1CN([C@H]2CCOc3c2ccc(F)c3F)CCN1C1CC2(CCN(c3ccc(C(=O)NS(=O)(=O)c4cc5c(c([N+](=O)[O-])c4)N[C@H](C4CCOCC4)CO5)c(N4c5cc6cc[nH]c6nc5O[C@H]5COCC[C@@H]54)c3)CC2)C1", "Assay Target": "RS4; 11 with G101V mutation", "pIC50": 7.03}
{"Molecule": "COc1cc(CN2CCN(C3CC4(CCN(c5ccc(C(=O)NS(=O)(=O)c6ccc(NCC7CCC(C)(O)CC7)c([N+](=O)[O-])c6)c(N6c7cc8cc[nH]c8nc7O[C@H]7COCC[C@@H]76)c5)CC4)C3)[C@@H](c3ccccc3OC(C)C)C2)cnc1C1CC1 (stereo partly drawn)", "Assay Target": "RS4; 11 with G101V mutation", "pIC50": 7.73}
{"Molecule": "CC(C)Oc1ccccc1[C@@H]1CN(Cc2ccc(F)c(F)c2)CCN1C1CC2(CCN(c3ccc(C(=O)NS(=O)(=O)c4cc5c(c([N+](=O)[O-])c4)N[C@H](C4CCOCC4)CO5)c(N4c5cc6c(F)c[nH]c6nc5O[C@H]5COCC[C@@H]54)c3)CC2)C1", "Assay Target": "RS4; 11 with G101V mutation", "pIC50": 8.26}
{"Molecule": "CC(C)c1ccccc1[C@@H]1CN(Cc2ccc(F)c(F)c2)CCN1C1CC2(CCN(c3ccc(C(=O)NS(=O)(=O)c4cc5c(c([N+](=O)[O-])c4)N[C@H](C4CCOCC4)CO5)c(N4c5cc6cc[nH]c6nc5O[C@H]5COCC[C@@H]54)c3)CC2)C1", "Assay Target": "RS4; 11 with G101V mutation", "pIC50": 8.12}
